system: U2OS; assay: Incucyte cell viability with U2OS; assay type: toxicity, cell-based; details: human, 18 h, 10 µM, compound concentration 10 uM, replicate number 2; note: unitless GR value; below 1 slowed growth and below 0 cell loss
valueType: Growth Rate
When you answer, write just the number.

COc1cc(NC(=O)c2ccc(-c3ccc(Cl)cc3)o2)cc(OC)c1 | 0.89
CC(=O)Nc1ncc(CN2CCC[C@H](Cc3cc(C)nc(C)c3)C2)s1 [JNJ-65355394] | 0.92
CCn1c(-c2nonc2N)nc2cncc(C(=O)N3CC[C@H](N)C3)c21.Cl | 0.88
NC(=O)c1cc(-c2ccnc(NC3CCCCC3)c2)nc(N2CCNCC2)c1 | 0.9

# context switch: different compound, same Growth Rate
Enquiry: Please provide the recorded Growth Rate for CN(C)[C@H]1CCc2nc(NC(=O)c3cccc(Cn4cc(-c5ccc(C#N)cc5)cn4)c3)sc2C1.O=C(O)C(F)(F)F , tested on U2OS.
Return: 0.89

---

tested on: U2OS; assay: Incucyte cell viability with U2OS; type: toxicity, cell-based; conditions: human, 12 h, 10 µM, compound concentration 10 uM, replicate number 1; note: unitless GR value; below 1 slowed growth and below 0 cell loss
Please note: criterion met applies when Growth Rate is 0.6 or greater, and criterion not met applies otherwise.

These recorded examples may help you get a feel for the data.
CC(C)(c1ccc(OCc2cccc(COc3ccc(C(=N)N)cc3)c2)cc1)c1ccc(O[C@@H]2O[C@H](C(=O)O)[C@@H](O)[C@H](O)[C@H]2O)cc1.O=C(O)C(F)(F)F | criterion met
NCc1ccc(OCCCc2sc(-c3ccc4c(c3)/C(=N/Nc3nc5ccccc5s3)CCC4)nc2C(=O)O)cc1 | criterion not met
CCOC(=O)N1CCC(CN(Cc2ccc(Cl)cc2)Cc2ccc([N+](=O)[O-])s2)C1 (centres undefined) [SR9009] | criterion met
CC#CC(=O)N1CCN(c2nc(-c3ccc(Oc4ccccc4)cc3)c(C(N)=O)s2)CC1 | criterion not met
Cl.NC(=O)c1ccccc1Nc1nc(-c2ccc(N3CCOCC3)cc2)cc2ncccc12 | criterion not met
Cc1nnc2n1-c1sc(CCC(=O)N3CCOCC3)cc1C(c1ccccc1Cl)=NC2 [APAFANT] | criterion met

Enquiry: # bool: Growth Rate of Cc1cc(NC(=O)c2cccc(NC(=O)/C=C/CN(C)C)c2)ccc1Nc1nccc(-c2cccnc2)n1 >= 0.6
Return: criterion met

Enquiry: Textbook exercise: given the entry CCC(=O)N[C@@H]1CC[C@H](C(=O)N(C)c2ccc(-c3nc4ccccc4o3)cc2)C1 [BI 99990] , state whether its Growth Rate is greater than or equal to 0.6.
Return: criterion not met

Enquiry: Confirm if Growth Rate reported for the compound COCCOCn1c(S(C)(=O)=O)nc2c1c(=O)n(C)c(=O)n2C is 0.6 or above.
Return: criterion not met

---

Growth Rate: recorded values
test system: Fibroblast; test: Incucyte cell viability with human fibroblast; assay type: toxicity, cell-based; conditions: 0 h, 10 µM, compound concentration 10 uM, replicate number 2; note: unitless GR value; below 1 slowed growth and below 0 cell loss
Numbered stars: 1 amine (or outer) side, 2 acyl side, 3 side chain; on linkers, the order of the positions; unused ones are H or OH. Bridge positions count the residues as written; N and C are the ends. Square brackets hold non-standard residues; d marks the D form. Peptide text beside a SMILES is read from it. I, II: the chains in the order shown. Hexamethylenediamine = C(CCCN[*:2])CCN[*:1]; Dip = N[C@H](C(=O)O)C(c1ccccc1)c1ccccc1; Chg = N[C@H](C(=O)O)C1CCCCC1; NMeA = CN[C@@H](C)C(=O)O
# respond with the number and nothing more

Solved entries (count: 3):
C=CC[C@@H]1/C=C(\C)C[C@H](C)C[C@H](OC)[C@H]2O[C@@](O)(C(=O)C(=O)N3CCCC[C@H]3C(=O)O[C@H](/C(C)=C/[C@@H]3CC[C@@H](O)[C@H](OC)C3)[C@H](C)[C@@H](O)CC1=O)[C@H](C)C[C@@H]2OC.O [TACROLIMUS] | -0.85
O=C(O)CCCCN(CCc1cc(F)ccc1OCc1ccc(-c2ccc(C(F)(F)F)cc2)cc1)Cc1ccc(C(=O)O)cc1 | -0.98
COC[C@H](O)Cn1c(=O)cnn(-c2ccc(Cl)c(C(=O)NCC3(O)CCCCCC3)c2)c1=O [CE-224535] | -1

Enquiry: Would you mind telling me what Growth Rate value was observed for O=C1NC(NC23CC4CC(CC(C4)C2)C3)=N/C1=C\c1ccc2ncsc2c1 ?
Return: 0.76

Enquiry: Please report the recorded Growth Rate for O=C1NCCc2c(OCCCCN3CCCCC3)cccc21 .
Return: -0.96

Enquiry: Given COc1cc(C)c(S(=O)(=O)N(C)CCC(=O)N[C@H]2CC[C@@H](N3CCC4CN(C)CC4C3)CC2)c(C)c1.Cl.Cl (stereo partly drawn) , state its recorded Growth Rate.
Return: -0.7

Enquiry: State the recorded Growth Rate for this entry: O=C1C[C@@H]2OCC=C3CN4CC[C@]56c7ccccc7N1[C@H]5[C@H]2[C@H]3C[C@H]46 [STRYCHNINE]
Return: -0.75

Enquiry: // lookup Growth Rate for C[C@@H]1COCCN1c1cc(=O)n2c(n1)N(Cc1cncc(Cl)c1)[C@H](C(F)(F)F)CC2
Return: -0.86

Enquiry: So what does the record say about Growth Rate for CN[C@@H](C)C(=O)N[C@H](C(=O)N1CCC[C@H]1C(=O)N[C@H](C(=O)NCCCCCCNC(=O)[C@@H](NC(=O)[C@@H]1CCCN1C(=O)[C@@H](NC(=O)[C@H](C)NC)C1CCCCC1)C(c1ccccc1)c1ccccc1)C(c1ccccc1)c1ccccc1)C1CCCCC1 (I: H-[NMeA][Chg]P[Dip] / II: H-[NMeA][Chg]P[Dip]; linker I:C-II:C via Hexamethylenediamine) ?
Return: -0.82

Enquiry: Endpoint output: Growth Rate of COc1cc2nc(-c3cc(F)ccc3O)nc(N[C@@H]3CNC[C@H]3C(C)(C)O)c2cc1OC.Cl.Cl . Value?
Return: 0.21

Enquiry: Entry CC(C)(C)c1ccc(NC(=O)N2CCN(c3ncccc3Cl)CC2)cc1 has what Growth Rate?
Return: -0.81

Enquiry: Need Growth Rate of Cc1cc(S(=O)(=O)N2CC(C)(C)c3cc(-c4ccc(C(F)(F)F)cc4)ccc32)ccc1OCC(=O)O , thanks.
Return: -0.87

Enquiry: // query Growth Rate value for entry Cc1ccc(CNc2ncnc3ccc(-c4ccc(CO)o4)cc23)o1
Return: 0.71

Enquiry: // returns reported Growth Rate for input C=CC(=O)N1CCC[C@@H](n2nc(C(=O)Nc3ccc(CC(=O)N(C)C)c(C)c3C)c3c(N)ncnc32)C1
Return: -1

Enquiry: Recorded Growth Rate for COc1cc2nc([C@@H]3CCCS(=O)(=O)C3)n(C)c2cc1NC(=O)c1cccc(C(C)(F)F)n1 , please?
Return: -0.81

Enquiry: Query (molecule): O=C1NC(Nc2ccccc2)=N/C1=C\c1ccc2c(c1)OCO2 ; field requested: Growth Rate
Return: -0.92

Enquiry: For COc1ccc(S(=O)(=O)N2CCOCC2)cc1Nc1ccc2c(n1)N(C1CCOCC1)[C@H](C)C(=O)N2C , what is its reported Growth Rate?
Return: -0.13

---

# Growth Rate values compiled below
test system: HEK-293T; experiment: Incucyte cell viability with HEK293T; assay type: toxicity, cell-based; conditions: human, 18 h, 10 µM, compound concentration 10 uM, replicate number 2; note: unitless GR value; below 1 slowed growth and below 0 cell loss
Form field (numeric): enter value without unit.

Enquiry: Which measured Growth Rate belongs to Cl.O=C(c1ccc(-c2ccc(Cl)cc2)o1)N(Cc1ccccn1)c1ccc(N2CCNCC2)cc1 , tested on HEK-293T?
Return: 0.43

Enquiry: Test system HEK-293T; read-out Growth Rate; what value for CN(C(=O)CCOCCOCCOCCOCCNc1cccc2c1C(=O)N(C1CCC(=O)NC1=O)C2=O)[C@H]1CC[C@@]2(C)[C@@H](CC[C@@H]3[C@@H]2CC[C@]2(C)[C@@H](c4ccc5ccncc5c4)CC[C@@H]32)C1 (stereo not given in full) ?
Return: 0.79

Enquiry: Enter reported Growth Rate observed with HEK-293T for CCN(C)S(=O)(=O)Nc1cccc(-c2ccc3c(NC(=O)C4CC4)n[nH]c3c2)c1
Return: -0.33

Enquiry: Identify the measured Growth Rate of NC(=O)c1cc(-c2ccnc(NC3CCCCC3)c2)nc(N2CCNCC2)c1 for HEK-293T.
Return: 0.26

Enquiry: Could you share what Growth Rate was measured for CN1C(=O)Cc2ccc(-c3ccc(C[C@@H](C#N)NC(=O)[C@H]4N[C@@H]5CC[C@H]4C5)c(F)c3)cc21 , tested on HEK-293T?
Return: 0.88

---

Each record here notes measured Growth Rate.
test system: U2OS; experiment: Incucyte cell viability with U2OS; assay type: toxicity, cell-based; conditions: human, 24 h, 10 µM, compound concentration 10 uM, replicate number 1; note: unitless GR value; below 1 slowed growth and below 0 cell loss
Respond using a number only.

CC[C@@H](CO)Nc1nc(Nc2cccc(NC(=O)C(C)(C)C)c2)ncc1F | 0.91

Enquiry: Fill in the blank: the reported Growth Rate of CNC(=O)COc1cc2cc(Nc3nc(N4CCC(C(=O)N(C)C)CC4)ncc3Cl)cc(OC)c2n(C)c1=O is ____.
Return: 0.92

Enquiry: For CNC(=O)c1c(F)cccc1Nc1nc(Nc2cc3c(cc2OC)CCN3C(=O)CN(C)C)nc2[nH]ccc12 , what is its reported Growth Rate?
Return: -0.45

Enquiry: Value lookup for Growth Rate; key = CC1CCN(C(=O)[C@H](CCn2cccc2C#N)NS(=O)(=O)c2cccc3[nH]ccc23)CC1
Return: 0.98

Enquiry: Looking for the measured Growth Rate of Cl.Cl.N=C(N)NCCC[C@H](NC(=O)CC1(CC(=O)N2CCN(C3c4ccccc4NC(=O)c4ccccc43)CC2)CCCC1)C(=O)NCCn1c(=O)n(-c2ccccc2)n(-c2ccccc2)c1=O (stereo not given in full) , can you help?
Return: 0.73

Enquiry: Recorded Growth Rate for COc1ccc(COc2ccc(Cc3cnc(N)nc3N)cc2OC)cc1 [GW632580X] , please?
Return: 0.89

Enquiry: Suppose we examine the compound Cl.c1ccc2c(c1)CCC[C@H]2Nc1nc2ccccc2[nH]1 ; what Growth Rate value has been reported?
Return: 0.98

Enquiry: Looking for the measured Growth Rate of N[C@H](C(=O)O)[C@@H]1CC(Cl)=NO1 [ACIVICIN] , can you help?
Return: 0.51

Enquiry: Which Growth Rate is listed for Cc1c(NC(=O)c2ccc(C(C)(C)C)cc2)cccc1-c1cn(C)c(=O)c(Nc2ccc(C(=O)N3CCOCC3)cc2)n1 ?
Return: 0.97

Enquiry: Could you tell me which Growth Rate is on file for O=C(O)c1cc(-c2ccccc2)ccc1O ?
Return: 0.87
